Measured IC50 by item
test system: p-IKKα levels in L363 (NIK translocated multiple myeloma) cells; experiment: Effect of compounds on p-IKKα levels in L363 cells (AlphaLISA SureFire Ultra); format: cell-based; conditions: Homo sapiens, L-363; L363 cells, BAFF stimulated, MG132, 6 h; average of values; read-out: Assay 2 IC50

Answered examples (4):
# structure_string, IC50
rows = [
    ("CN1CC[C@@](O)(c2cn(-c3cccc(-c4nc(C(N)=O)n5ccccc45)c3)nn2)C1=O", "< 100 nM"),
    ("CN1CC[C@@](O)(c2cc(-c3ccnc(-n4nc(C(N)=O)c5ccccc54)c3)no2)C1=O", "< 100 nM"),
    ("CN1CC[C@@](O)(c2cc(-c3cccc(-c4nc(C(N)=O)cs4)c3)no2)C1=O", "> 501 nM"),
    ("CN1CC[C@@](O)(c2cc(-c3cccc(-c4cc(N)c5nc[nH]c(=O)c5n4)c3)no2)C1=O", "> 501 nM"),
]

**Query** Fill in IC50 for record `CN1CC[C@@](O)(c2cc(-c3cccc(-c4cc(-c5ccnn5C5CC5)cc(C(N)=O)n4)c3)no2)C1=O`
**Result** > 501 nM

**Query** Give the reported IC50 for this compound. `CN1CC[C@@](O)(c2cc(-c3ccnc(N4CCc5ccnc(N)c5C4)c3)no2)C1=O`
**Result** > 501 nM

**Query** Retrieve IC50 measured for `CN1CC[C@@](O)(c2cc(-c3cccc(-c4nc(C(N)=O)c(NC5COC5)s4)c3)no2)C1=O` and print it.
**Result** < 100 nM

###

Item-by-item account of pIC50
tested on: p-IKKα levels in L363 (NIK translocated multiple myeloma) cells; assay: Effect of compounds on p-IKKα levels in L363 cells (AlphaLISA SureFire Ultra); assay type: cell-based; conditions: Homo sapiens, L-363; L363 cells, BAFF stimulated, MG132, 6 h; average of values; read-out: Assay 2 IC50
pIC50: −log10 of the molar value.

Answered examples (3):
# molecule, pIC50
data = [
    ("Cc1cc(-c2cccc(-c3cc([C@@]4(O)CCN(C)C4=O)on3)c2)nc2c(N)ncnc12", "< 6.30"),
    ("CN1CC[C@@](O)(c2cc(-c3cccc(-c4cc(-c5c[nH]nc5C5CC5)cc(C(N)=O)n4)c3)no2)C1=O", "< 6.30"),
    ("CNc1sc(-c2cccc(-c3cc([C@]4(O)CCN(C)C4=O)on3)c2)nc1C(N)=O", "> 7.00"),
]

**Query** Fill in reported pIC50 for this entry: `CN1CC[C@@](O)(c2cc(-c3cccc(-c4nc(C(N)=O)c5ccc(F)cc5n4)c3)on2)C1=O`
**Result** < 6.30

**Query** Identify measured pIC50 corresponding to CN1CCC(O)(c2cc(-c3cccc(Nc4nc5c(N)ncnc5s4)c3)on2)C1=O (racemic)
**Result** < 6.30

**Query** Determine its reported pIC50: `CN1CC[C@@](O)(c2cc(-c3cccc(-c4ncc(NC5COC5)c(C(N)=O)n4)c3)no2)C1=O`
**Result** > 7.00

**Query** Supply reported pIC50 belonging to this molecule: `CN1CC[C@@](O)(c2cc(-c3cccc(-c4cccc5c(=O)[nH]cnc45)c3)no2)C1=O`
**Result** < 6.30

**Query** Annotate the molecule `CC(C)N1CCn2c(-c3cccc(-c4cc([C@]5(O)CCN(C)C5=O)on4)c3)nc(C(N)=O)c2C1` with its measured pIC50.
**Result** < 6.30

**Query** Specify measured pIC50 for `CN1CC[C@@](O)(c2cc(-c3cccc(-c4ccc5c(c4)N(C)C(=O)CN5)c3)no2)C1=O` .
**Result** < 6.30

**Query** State its pIC50: `[2H]C([2H])([2H])N1CC[C@@](O)(c2cc(-c3cccc(-c4nc(C(N)=O)n5c4CCCC5)c3)no2)C1=O`
**Result** 6.30 to 7.00

**Query** Identify measured pIC50 associated with `Cc1cn(C)nc1Nc1sc(-c2cccc(-c3cc([C@]4(O)CCN(C)C4=O)on3)c2)nc1C(N)=O`
**Result** > 7.00

**Query** For the molecule CN1CC[C@@](O)(c2cc(-c3cccc(-c4nc5c(c(C(N)=O)n4)C4CCC(C5)O4)c3)[nH]n2)C1=O (stereo in doubt) , give its reported pIC50.
**Result** < 6.30

**Query** Dear colleague, please send me the reported pIC50 for CN1CC[C@@](O)(c2cnn(-c3cccc(-c4cccc(C(N)=O)n4)c3)c2)C1=O (single isomer, unassigned) when you can.
**Result** < 6.30

**Query** Look up pIC50 of `CN1CC[C@@](O)(c2cc(-c3cc(-c4cc(C5CC5)c(N)c(C(N)=O)n4)ccc3F)no2)C1=O` and report it.
**Result** < 6.30
